# METHOD_DESCRIPTION: yeast display, Sf9 membrane polyspecificity reagent, FACS + sequencing; frameworks hold sequencing errors

[
  {
    "SEQUENCE": "QVQLVESGGGLVQAGGSLRLSCAASGLILHKYAMGWYRQAPGKERELVASINSGANTNYADSVKGRFTISRDNAKNTVYLQMNSLKPEDTAVYYCNADPGFRDYYWGQGTQVNVSS",
    "polyreactivity (PSR sort gate)": "low polyreactivity"
  },
  {
    "SEQUENCE": "QVQLVESGGGLVQAGGSLRLSCAASGGIFQGYAMGWYRQAPGKERELVAAISRSGGRTYYADSVKGRFTISRDNAKKTVYLQMNSLKPEDTSVYYCAADIRLSKYDYRGQGTQVTVSS",
    "polyreactivity (PSR sort gate)": "high polyreactivity"
  },
  {
    "SEQUENCE": "QVQLVESGGGLVQEGGSLRLSCAASGSTFSSYAMGWYRQAPGKERELVAAISWSGGSTYYADSVKGRFTISRDNAKNTVYLQMISLKPEDTAVYYCAAYTYSFRANHDYWGQGTQVTVSS",
    "polyreactivity (PSR sort gate)": "high polyreactivity"
  },
  {
    "SEQUENCE": "QVQLVESGGGLVQAGGSLRLSCADSGSIFYGYTMGWYRQAPGKERELVAAISSSGGSTYYADSVKGRFTISRDNAKNTVYLQMNSLKPEDTAVYYCAAYVPYSPDHVEFNYWGQGTQVTVSS",
    "polyreactivity (PSR sort gate)": "high polyreactivity"
  },
  {
    "SEQUENCE": "QVQLVESGGGLVQAGGSLRLSCAASGRTFSYYTMGWSRQAPGKERELVAAISWSGGNTYYADSVKGRFTISRDNAKNTVYLQMNSLKPEDTAVYYCAARSVYGSYSGYDYWGQGTQVTVSS",
    "polyreactivity (PSR sort gate)": "high polyreactivity"
  },
  {
    "SEQUENCE": "QVQLVESGGGLVQAGGSLRLSCAASGSTLGYYTMGWYRQAPGKERELVAAISGSGVTTSYADSVKGRFTISRDTAKNTVYLQMNSLKPEDTAVYYCARRYRVGTTGGDYWGQGTQVTVSS",
    "polyreactivity (PSR sort gate)": "high polyreactivity"
  },
  {
    "SEQUENCE": "QVQLVESGGGLVQAGGSLRLSCAASGLTFIPNAMGWYRQAPGKERELVAAISGTGGSTYYADSVKGRFTISRDNAKNTVYLQMNSLKPEDTAVFYCAARAYLGYYSWGQGTQVTVSS",
    "polyreactivity (PSR sort gate)": "high polyreactivity"
  },
  {
    "SEQUENCE": "QVQLVESGGGLVQAGGSLRLSCAASGSTFGEYAMGWYRQAPGKERELVASITFSAGSTDYADSVKGRFTISRDNAKNTVYLQMNSLKPEDTAVYYCAADGWWPWEYDYWGQGTQVTVSS",
    "polyreactivity (PSR sort gate)": "low polyreactivity"
  },
  {
    "SEQUENCE": "QVQIVESGGGLVQAVGSLRLSCAASGFTFTYNAMGWYRQAPGKERELVAAISSGGRTYYADSVKGRFTISRDNAKNTVYLQMNSLKPEDTAVYYCNADPDQYTLRSITNDEDYWGQGTQVTVSS",
    "polyreactivity (PSR sort gate)": "low polyreactivity"
  },
  {
    "SEQUENCE": "QVQLVESGGGLVQAGGSLRLSCAASGFIFQYYAMGWYRQAPGKERELVAAINRGGGTHYADSVKGRFTISRDNAKNTVYLQMNSLKPEDTAVYYCNKVYYWPGSRPSRYEYWGQGTQVTVSS",
    "polyreactivity (PSR sort gate)": "low polyreactivity"
  },
  {
    "SEQUENCE": "QVQLVESGGGLVQAGGSLRLSCAASGRIFTGYTMGWYRQAPGKERELVAGITGSSGSTYYADSVKGRFTISRDNAKNTVYLQMNSLKPEDTAVYYCAAGRRYRSVGYGYWGQGTQVTVSS",
    "polyreactivity (PSR sort gate)": "high polyreactivity"
  }
]
